System: Cloned Human Dopamine D3 Receptors (Homo sapiens, UniProt P35462)
Construct: expressed in transfected cells; membrane homogenate
Sequence (P35462 whole entry): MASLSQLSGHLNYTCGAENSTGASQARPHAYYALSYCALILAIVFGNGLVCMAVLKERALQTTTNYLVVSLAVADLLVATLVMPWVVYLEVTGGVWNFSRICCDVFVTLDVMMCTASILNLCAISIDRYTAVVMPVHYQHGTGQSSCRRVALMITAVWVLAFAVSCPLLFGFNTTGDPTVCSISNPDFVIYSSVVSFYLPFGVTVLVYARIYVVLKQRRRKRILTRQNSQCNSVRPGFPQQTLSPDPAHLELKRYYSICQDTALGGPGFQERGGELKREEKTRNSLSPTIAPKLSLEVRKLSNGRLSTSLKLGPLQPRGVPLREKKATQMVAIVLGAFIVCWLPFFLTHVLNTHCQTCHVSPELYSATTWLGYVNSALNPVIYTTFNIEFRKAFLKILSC
Protocol text: [N-Methyl-3H]Spiroperidol binding to cloned human dopamine D3 receptors
Settings: read-out: d3Ki
Parameter measured: pKi
Scale note: pKi = -log10(concentration in M).

Lookup: Which pKi value belongs to Cc1ccc(N2CCN(C[C@@H]3C[C@H]3C(=O)N[C@H]3CC[C@H](C)CC3)CC2)cc1 ?
Found: 8.06

Lookup: Which pKi value belongs to O=C(NCCc1ccccn1)[C@@H]1CCCC[C@@H]1CN1CCN(c2csc3cc(C(F)(F)F)ccc23)CC1 ?
Found: 6.62

Lookup: Which pKi value belongs to O=C([C@@H]1C[C@H]1CN1CCN(c2csc3cc(C(F)(F)F)ccc23)CC1)N(CCO)C1CCCCC1 ?
Found: 7.31

Lookup: Which pKi value belongs to O=C(N[C@H]1CC[C@H](O)CC1)[C@@H]1C[C@H]1CN1CCN(c2csc3cc(C(F)(F)F)ccc23)CC1 ?
Found: 7.96

Lookup: Which pKi value belongs to CC(NC(=O)[C@@H]1CCC[C@H]1N1CCN(c2csc3cc(F)ccc23)CC1)c1ccccc1 (stereo partly shown) ?
Found: 7.34

Lookup: Which pKi value belongs to CC[C@H]1CC[C@H](NC(=O)[C@@H]2C[C@H]2CN2CCN(c3ccc(Cl)c(Cl)c3)CC2)CC1 ?
Found: 8.46

Lookup: Which pKi value belongs to COc1cc(CNC(=O)[C@@H]2CCCC[C@@H]2CN2CCN(c3csc4cc(C(F)(F)F)ccc34)CC2)cc(OC)c1OC ?
Found: 7.22

* * *

System: Cloned Human Dopamine D3 Receptors (Homo sapiens)
Construct: expressed in transfected cells; membrane homogenate
Protocol text: [N-Methyl-3H]Spiroperidol binding to cloned human dopamine D3 receptors
Settings: read-out: d3Ki
Please go through the items and note down their log10 Ki.
Please interpret these as log10 of Ki where Ki is in nM.

Lookup: Can you look up log10 Ki on Cloned Human Dopamine D3 Receptors (Homo sapiens) for CC1(C)C2CCC1(C)C(NC(=O)[C@@H]1C[C@H]1CN1CCN(c3csc4cc(C(F)(F)F)ccc34)CC1)C2 (some centres unmarked) ?
Found: 1.58

Lookup: Can you look up log10 Ki on Cloned Human Dopamine D3 Receptors (Homo sapiens) for O=C(NC1CCCCC1)[C@@H]1C[C@H]1CN1CCN(c2csc3cc(F)ccc23)CC1 ?
Found: 0.36

Lookup: Can you look up log10 Ki on Cloned Human Dopamine D3 Receptors (Homo sapiens) for O=C(NC1CCC(CO)CC1)C1CC1CN1CCN(c2csc3cc(C(F)(F)F)ccc23)CC1 (centres unmarked) ?
Found: 0.87

Lookup: Can you look up log10 Ki on Cloned Human Dopamine D3 Receptors (Homo sapiens) for C[C@H]1CC[C@H](NC(=O)[C@@H]2C[C@H]2CN2CCN(c3cccc(C(F)(F)F)c3)CC2)CC1 ?
Found: 0.38

Lookup: Can you look up log10 Ki on Cloned Human Dopamine D3 Receptors (Homo sapiens) for O=C(NC1CC1)[C@@H]1CCCC[C@@H]1CN1CCN(c2csc3cc(C(F)(F)F)ccc23)CC1 ?
Found: 2.84

Lookup: Can you look up log10 Ki on Cloned Human Dopamine D3 Receptors (Homo sapiens) for O=C(Nc1cccnc1)[C@@H]1CCCC[C@@H]1CN1CCN(c2csc3cc(C(F)(F)F)ccc23)CC1 ?
Found: 2.75

Lookup: Can you look up log10 Ki on Cloned Human Dopamine D3 Receptors (Homo sapiens) for O=C(NC1CCCCCCCC1)[C@@H]1C[C@H]1CN1CCCN(c2csc3cc(C(F)(F)F)ccc23)CC1 ?
Found: 1.68

Lookup: Can you look up log10 Ki on Cloned Human Dopamine D3 Receptors (Homo sapiens) for O=C(NCc1ccccn1)[C@@H]1CCCC[C@H]1CN1CCN(c2csc3cc(C(F)(F)F)ccc23)CC1 ?
Found: 2.69

Lookup: Can you look up log10 Ki on Cloned Human Dopamine D3 Receptors (Homo sapiens) for O=C(NC1CCCC1)[C@@H]1C[C@H]1CN1CCCN(c2csc3cc(F)ccc23)CC1 ?
Found: 0.46

Lookup: Can you look up log10 Ki on Cloned Human Dopamine D3 Receptors (Homo sapiens) for C[C@H]1CC[C@H](NC(=O)[C@@H]2C[C@H]2CN2CCN(c3cnccn3)CC2)CC1 ?
Found: 1.03

Lookup: Can you look up log10 Ki on Cloned Human Dopamine D3 Receptors (Homo sapiens) for O=C(NCc1ccc(C(F)(F)F)cc1)[C@@H]1CCCC[C@@H]1CN1CCN(c2csc3cc(C(F)(F)F)ccc23)CC1 ?
Found: 2.00

Lookup: Can you look up log10 Ki on Cloned Human Dopamine D3 Receptors (Homo sapiens) for CC[C@H]1CC[C@H](NC(=O)[C@@H]2C[C@H]2CN2CCN(c3csc4cc(F)ccc34)CC2)CC1 ?
Found: 0.40

Lookup: Can you look up log10 Ki on Cloned Human Dopamine D3 Receptors (Homo sapiens) for CC[C@H]1CC[C@H](NC(=O)[C@@H]2C[C@H]2CN2CCN(c3ccc(C(F)(F)F)cn3)CC2)CC1 ?
Found: 2.00

Lookup: Can you look up log10 Ki on Cloned Human Dopamine D3 Receptors (Homo sapiens) for CCOC(=O)[C@H]1CC[C@H](NC(=O)[C@@H]2C[C@H]2CN2CCCN(c3csc4cc(C(F)(F)F)ccc34)CC2)CC1 ?
Found: 0.96

* * *

System: Cloned Human Dopamine D3 Receptors (Homo sapiens, UniProt P35462)
Construct: expressed in transfected cells; membrane homogenate
Protocol text: [N-Methyl-3H]Spiroperidol binding to cloned human dopamine D3 receptors
Settings: Table 2; unit inferred; read-out: d3Ki
Experimental: [N-Methyl-^3H]Spiroperidol Binding to Cloned Human Dopamine D3 Receptors […] A 200 µl sample membrane homogenate is added to 200 µl of 1% SDS, vortexed and allowed to stand for 5 min. Aliquots (25, 50 and 100 µl) of this mixture are assayed in duplicate following the standard Bio-Rad DC protein assay protocol (kit catalog number 500-0112) and using reagent S. Absorbance readings are made at 750 nm (note: the most accurate protein OD readings are between 0.1-0.5 units). […]
Please go through the items and note down their log10 Ki.
Please interpret these as log10 of Ki where Ki is in µM.

Lookup: Which log10 Ki value belongs to O=C(NCc1cccs1)[C@@H]1C[C@H]1CN1CCN(c2csc3cc(C(F)(F)F)ccc23)CC1 ?
Found: -1.90

Lookup: Which log10 Ki value belongs to CCC1CCC(NC(=O)C2CC2CN2CCN(c3ccc(C)c(C)c3)CC2)CC1 (stereo not shown) ?
Found: -2.72

Lookup: Which log10 Ki value belongs to CN(C(=O)CCCN1CCN(c2csc3cc(F)ccc23)CC1CCCc1ccccc1)C1CCCCC1 (stereo not shown) ?
Found: -1.10

Lookup: Which log10 Ki value belongs to C[C@H]1CC[C@H](NC(=O)CCCN2CCN(c3csc4cc(C(F)(F)F)ccc34)CC2Cc2ccccc2)CC1 (stereo partly shown) ?
Found: -0.10

Lookup: Which log10 Ki value belongs to O=C(CCCN1CCN(c2csc3cc(F)ccc23)CC1CCCc1ccccc1)N(CCO)C1CCCCC1 (stereo not shown) ?
Found: -0.84

Lookup: Which log10 Ki value belongs to CN(C(=O)CCCCN1CCN(c2csc3cc(F)ccc23)CC1)c1ccccc1 ?
Found: -1.42

Lookup: Which log10 Ki value belongs to COc1ccc(N2CCN(C[C@@H]3C[C@H]3C(=O)N[C@H]3CC[C@H](C)CC3)CC2)c(OC)c1 ?
Found: -2.05

* * *

System: Cloned Human Dopamine D3 Receptors (Homo sapiens, UniProt P35462)
Construct: expressed in transfected cells; membrane homogenate
Protocol text: [N-Methyl-3H]Spiroperidol binding to cloned human dopamine D3 receptors
Settings: Table 2; unit inferred; read-out: d3Ki
Parameter measured: pKi
Scale note: pKi = -log10(concentration in M).

Lookup: Which pKi value belongs to CCC1CCC(NC(=O)C2CC2CN2CCN(c3cc(Cl)cc(Cl)c3)CC2)CC1 (stereo not drawn) ?
Found: 9.20

Lookup: Which pKi value belongs to C[C@]1(O)CC[C@H](NC(=O)[C@@H]2C[C@H]2CN2CCN(c3csc4cc(C(F)(F)F)ccc34)CC2)CC1 ?
Found: 8.67

Lookup: Which pKi value belongs to C[C@H]1CC[C@H](NC(=O)[C@@H]2C[C@H]2CN2CCN(c3cccc4ccccc34)CC2)CC1 ?
Found: 8.96

Lookup: Which pKi value belongs to CC[C@H]1CC[C@H](NC(=O)[C@@H]2C[C@H]2CN2CCN(c3cccc4ccccc34)CC2)CC1 ?
Found: 9.26

Lookup: Which pKi value belongs to CN(C(=O)CCCN1CCN(c2csc3cc(C(F)(F)F)ccc23)CC1CCc1ccccc1)C1CCCCC1 (stereo not drawn) ?
Found: 6.57

Lookup: Which pKi value belongs to C[C@H]1CC[C@H](NC(=O)[C@@H]2C[C@H]2CN2CCN(c3ncccc3Cl)CC2)CC1 ?
Found: 8.76

Lookup: Which pKi value belongs to CN(C(=O)CCCN1CCN(c2csc3cc(F)ccc23)CC1Cc1ccccc1)C1CCCCC1 (stereo not drawn) ?
Found: 6.51

Lookup: Which pKi value belongs to CCC1CCC(NC(=O)C2CC2CN2CCCN(c3cc(C(F)(F)F)nc(C(C)(C)C)n3)CC2)CC1 (stereo not drawn) ?
Found: 7.90

Lookup: Which pKi value belongs to C[C@H]1CC[C@H](NC(=O)[C@@H]2C[C@H]2CN2CCN(c3ccccc3C#N)CC2)CC1 ?
Found: 9.09

Lookup: Which pKi value belongs to C[C@H]1CC[C@H](NC(=O)CCCN2CCN(c3csc4cc(F)ccc34)CC2CCCc2ccccc2)CC1 (stereo partly drawn) ?
Found: 6.93

Lookup: Which pKi value belongs to CN(C(=O)CCCN1CCN(c2csc3cc(C(F)(F)F)ccc23)CC1CCCc1ccccc1)C1CCCCC1 (stereo not drawn) ?
Found: 6.90

Lookup: Which pKi value belongs to O=C(CCCCN1CCN(c2csc3cc(F)ccc23)CC1)N(Cc1ccccc1)c1ccc(F)cc1 ?
Found: 7.41

Lookup: Which pKi value belongs to Cc1ccc(N2CCCN(C[C@@H]3C[C@H]3C(=O)N[C@H]3CC[C@H](C)CC3)CC2)nc1 ?
Found: 7.71

Lookup: Which pKi value belongs to C[C@H]1CC[C@H](NC(=O)[C@@H]2C[C@H]2CN2CCN(CCc3ccccc3)CC2)CC1 ?
Found: 6.79

Lookup: Which pKi value belongs to O=C(NCc1cccnc1)[C@@H]1C[C@H]1CN1CCN(c2csc3cc(C(F)(F)F)ccc23)CC1 ?
Found: 7.52

// data source = patent EP1935887A1
